Molecular target: MAO-B (Sus scrofa)
Construct: from tissue; host or cells: pig brain mitochondria
Sequence (Q6PLK3 1-520): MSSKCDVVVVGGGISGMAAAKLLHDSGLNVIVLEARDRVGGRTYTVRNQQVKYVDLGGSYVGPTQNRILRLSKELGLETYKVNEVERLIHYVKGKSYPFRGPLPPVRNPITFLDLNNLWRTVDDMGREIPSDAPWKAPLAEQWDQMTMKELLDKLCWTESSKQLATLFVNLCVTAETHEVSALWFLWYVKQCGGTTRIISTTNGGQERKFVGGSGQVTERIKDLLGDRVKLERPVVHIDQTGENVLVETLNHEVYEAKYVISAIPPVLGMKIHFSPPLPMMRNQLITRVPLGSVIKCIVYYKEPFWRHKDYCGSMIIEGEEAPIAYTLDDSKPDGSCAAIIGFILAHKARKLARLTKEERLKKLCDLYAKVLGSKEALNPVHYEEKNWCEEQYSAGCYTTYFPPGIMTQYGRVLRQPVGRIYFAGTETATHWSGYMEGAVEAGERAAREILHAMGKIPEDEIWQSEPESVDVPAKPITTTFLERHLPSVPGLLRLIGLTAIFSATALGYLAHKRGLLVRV
Assay: MAO-B activity, radiolabeled [14C]PEA substrate
Assay type: biochemical, pig
pIC50: −log10 of the molar value.
Parameter: pIC50

[[record]]
compound = "CNC1(c2ccccc2Cl)CCCCC1=O (stereo not shown)"
observed_result = 4.29

